The measurements presented in this section are drawn from PubChem BioAssay (NCI).

Consider the following compounds and their measured TGI readings.
tested on: M14 melanoma; test: NCI tumour cell line growth inhibition, 48 h
QUANTITY NAME: TGI

• CC(=O)Nn1cnc(C(=N)C#N)c1N = > 100 µM
• CC(=O)OCC1=CC2OC(=O)C3=COC(OC4OC(CO)C(O)C(O)C4O)C1C32 (stereo unspecified) = > 100 µM
• O=C(CC1(O)C(=O)Nc2ccccc21)c1ccc(Cl)cc1Cl (stereo unspecified) = > 100 µM
• CCOC(=O)CNC(=O)OCc1ccccc1 = > 100 µM
• Cc1ccc2nc(CN(CCO)CCO)cc(=O)n2c1 = > 100 µM
• N#Cc1ccc([N+](=O)[O-])cc1NC(N)=S = > 100 µM
• CCCCc1n(Cc2ccc3ccccc3n2)cc[n+]1Cc1ccc2ccccc2n1 = 10.2 µM
• CC[C@]1(Cc2ccc(OC)c(OC)c2)C2CC(C(=O)OC)ON2O[C@H](OCc2ccccc2)[C@@H]1OC(C)=O (stereo partly specified) = > 100 µM
• CC(C)=NOC(=O)OC[C@H]1O[C@@H](n2cnc3c(N)ncnc32)C(O)C1O (stereo partly specified) = > 100 µM
• CC(C)CNCCc1ccccn1 = > 100 µM
• CN=C1CN=C(OP(=O)(N2CCOCC2)N2CCOCC2)c2cc(Cl)ccc2N1 = > 100 µM
• O=C1c2cc3c(cc2-c2c1c1ccc(F)cc1c(=O)n2C[C@H](O)[C@H](O)[C@H](O)CO)OCO3 = 4 µM
• CCOC(=O)/C(=C\c1cn(C(C)=O)c2ccccc12)P(C)(=O)OCC (stereo unspecified) = > 100 µM
• CCO[C@H]1O[C@@H]2OC3(C)CCC4[C@H](C)CCC([C@H]1C)[C@]42OO3 (stereo partly specified) = > 100 µM
• O=C(O)/C=C/c1ccc(OS(=O)(=O)O)cc1 = > 100 µM
• C1=CCC[C@@H]2CN3CCCC/C=C\CCCC[C@H]4C[C@H](CN(CCCCCCCC1)C4)[C@H]2CC3 = 18.7 µM
• CCOC(=O)c1c2c(n3ccc(NC(=O)CCN4CCCCC4)cc13)C(=O)c1ncccc1C2=O = 1.76 µM
• CCN1C(=O)N(CC)C2C1NN=c1s/c(=C\c3ccc(C(F)(F)F)cc3)c(=O)n12 (stereo unspecified) = > 36.1 µM
• CC(C)c1cccc(C(C)C)c1NC(=O)C(=O)C1CCC2=C(Sc3ccccc3N2)C1=O (stereo unspecified) = > 100 µM
• O=C1/C(=C/c2ccc(F)cc2)CN(C(=O)C(Cl)Cl)C/C1=C\c1ccc(F)cc1 = 0.758 µM
• Cc1cc(C#N)c(Nc2ccc(F)cc2[N+](=O)[O-])s1 = > 100 µM
• COc1ccc(C2CC(c3ccc(OC)cc3O)=NN2c2ccc(S(N)(=O)=O)cc2)cc1 (stereo unspecified) = 25.9 µM
• COc1ccccc1NC(=O)C1=C(C)NC(C)=C(C(=O)Nc2ccccc2OC)C1c1ccccc1Cl = > 100 µM
• CCCS(=O)(=O)Nc1cccc(Nc2ncnc3cc(NC(=O)CCl)ccc23)c1Cl = 5.16 µM
• CCOP(=O)(Nc1ccc(-c2ccc(N)cc2)cc1)OCC = > 100 µM
• COc1ccc(CNCCCN2C(=O)c3ccc4c5c(ccc(c35)C2=O)C(=O)N(CCCNCc2ccc(OC)c(OC)c2OC)C4=O)c(OC)c1OC = 0.162 µM
• COc1cc2c(/C=C3/C(=O)Nc4ccc(O)cc43)c(Cl)n(Cc3cc(OC)c(OC)c(OC)c3)c2cc1C = 51 µM
• CN1N=C2c3ccccc3OC(c3ccccc3)[C@H]2C1c1ccccc1 (stereo partly specified) = > 100 µM
• COc1ccc(N/N=C/C2=CC(C)(C)C(C#N)(C#N)C(O)=C2C#N)cc1 = > 100 µM
• CC1=C2[C@@H](CC1)[C@]1(C)O[C@@](C(C)C)(C[C@H]1OC(=O)CO)[C@H]2OC(=O)CCCc1ccccc1 = 21.8 µM
• N#CC1(N2CCCC2)CCC2(CC1)OCCO2 = > 100 µM
• O=C1c2cn[nH]c2N=C(Nc2ccccc2)C1N=Cc1ccc([N+](=O)[O-])cc1 (stereo unspecified) = > 10 µM
• Cc1nc(C)c(N2CCN(S(N)(=O)=O)CC2)c(=O)[nH]1 = > 100 µM
• c1cc(C2=NCCO2)c2ccsc2c1 = > 100 µM
• CN/N=C(\C(=O)Nc1ccc(C(F)(F)F)cc1[N+](=O)[O-])C(c1cnc2ccc([N+](=O)[O-])cc2n1)[N+](=O)[O-] (stereo unspecified) = > 100 µM
• CN=c1ssc(=S)n1C(C)C = 79 µM
• O=c1oc2ccc(Cl)cc2c(=O)n1-c1ccc(F)cc1F = 5.03 µM
• O=S1(=O)c2cc(S(=O)(=O)n3ccnc3)ccc2NC2=NCCCN21 = > 100 µM
• Cc1c(C(=O)Nc2ccccc2)nnn1-c1ccnc2cc(C(F)(F)F)ccc12 = > 100 µM
• N#Cc1sc2c(c1OC(=O)c1ccc(Cl)cc1Cl)c(=O)n(-c1ccccc1)c(=S)n2-c1ccccc1 = 36.6 µM
• O=C(C=Nc1ccccc1S)c1ccco1 = 28.7 µM

---

tested on: MCF7 breast; assay: NCI tumour cell line growth inhibition, 48 h; in the data active = GI50 below about 0.43 µM; inactive = the rest
Outcomes: active, inactive

• COc1cc2c(c(OC)c1OC)-c1c(c3ccc([N+](=O)[O-])cc3c(=O)n1CCCBr)C2=O = active
• O=C(c1ccccc1)C1OC1C(=O)c1ccccc1 (stereo not given) = inactive
• CC1(C)CCc2c(c(N=Nc3ccccc3F)c3ccccc3c2O)O1 = inactive
• COc1ccc2nc3c(cc2c1)C(=O)CC(c1ccccc1)C3 (stereo not given) = inactive
• COc1ccc2c(c1)C(=O)c1c-2c(N2CCN(C(=O)CCNCCNCCN)CC2)nc2ccccc12 = inactive

---

Consider the following compounds and their measured TGI readings.
tested on: CCRF-CEM leukemia; assay: NCI tumour cell line growth inhibition, 48 h
Peptide text beside a SMILES is read from it. * marks the point of attachment. X34 = O=C(c1ccc(-c2ccc(Cl)cc2Cl)o1)*
QUANTITY NAME: TGI

* OCCN(CCO)c1nc(N2CCCCC2)c2nc(N(CCO)CCO)nc(N3CCCCC3)c2n1 | > 100 µM
* Cc1ccc2nc(CN(CCO)CCO)cc(=O)n2c1 | > 100 µM
* CC(=O)OCCCCN1C(=O)CSc2ccccc21 | > 100 µM
* COC(=O)C(CC(C)C)NC(=O)C(Cc1ccccc1)NC(=O)C1CCCN1C(=O)C(CO)NC(=O)c1ccc(-c2ccc(Cl)cc2Cl)o1 (stereo not given) (X34-SPFL-OMe; configuration not given here) | > 100 µM
* CO/C=C(\Br)c1ccc2c(c1)OCO2 | > 100 µM
* O=[N+]([O-])c1ccc(N=Nc2c(Cl)cc(O)cc2Cl)cc1 | 7.25 µM
* COc1nc2ccc(CNc3ccc(C(=O)NC(CCC(=O)O)C(=O)O)cc3)cc2nc1OC (stereo not given) | > 100 µM
* Cc1oc2nc(N(C)C)nc(NN)c2c1C | > 100 µM
* CCN(CC)CCn1c(=O)c2cc(OC)c(OC)cc2c2ccc3cc4c(cc3c21)OCO4 | > 33.6 µM
* O=C(O)CCSC(=O)Nc1cccc2ccccc12 | > 100 µM

---

test system: NCI-H522 lung; assay: NCI tumour cell line growth inhibition, 48 h
Consider the following compounds and their measured TGI readings.
QUANTITY NAME: TGI

• O=[N+]([O-])c1cc(I)cc(/C=N/NS(=O)(=O)c2ccc(Cl)cc2)c1O = 33.2 µM
• CCOC(=O)Nc1ccc2c(c1)C(=O)N(CC)c1ccccc1O2 = 1.09 µM
• COc1ccccc1NC(=O)CC(=O)n1nc(C)c(N=Nc2ccccc2Cl)c1C = > 100 µM
• COC(=O)CCC(=O)c1ccc2c(c1)CC1(C2)Cc2ccc(C(=O)CCC(=O)OC)cc2C1 = > 100 µM
• O=C(c1ccccc1)N(CCCCNC(=O)C(F)(F)F)CCCNC(=O)C(F)(F)F = > 100 µM
• O=C(O)CN1C(=O)CN=C(c2ccccn2)c2cc(Cl)ccc21 = > 100 µM
• CC(=O)Nc1ccc(OC(C)=O)cc1 = < 0.01 µM
• C[N+](C)(C)C1CC([N+](C)(C)C)C2c3ccccc3C21 (configuration not stated) = > 100 µM
• CC(ON1[C@](C)(c2ccccc2)CC[C@@]1(C)c1ccccc1)c1ccccc1 (some centres not stated) = 50.3 µM
• CCOC(=O)CNC(=O)OCc1ccccc1 = > 100 µM
• O=C1c2cc3c(cc2-c2c1c1ccc(F)cc1c(=O)n2C[C@H](O)[C@H](O)[C@H](O)CO)OCO3 = 0.228 µM
• CN1c2c(nc(N)[nH]c2=O)NCC1CCNc1ccc(C(=O)NC(CCC(=O)O)C(=O)O)cc1 (configuration not stated) = 2470 µM
• CC(C)=Cc1cccc2[nH]c(O)c(N=Nc3ccc(S(N)(=O)=O)cc3)c12 = > 25 µM
• COc1cc2c3c(n(CCCn4cncn4)c(=O)c2cc1OC)-c1cc2c(cc1C3=O)OCO2 = > 100 µM
• O=S1(=O)c2ccccc2N2C(c3ccccc3)=NOC2(c2ccccc2)CC1c1ccc(Br)cc1 (configuration not stated) = > 100 µM
• Cn1ccc(=NS(=O)(=O)c2ccccc2)cc1 = > 100 µM
• O=C(CCCC(=O)N/N=C/c1cc(Cl)ccc1O)N/N=C\c1cc(Cl)ccc1O = > 100 µM
• CC(C)C1=CC2=CC[C@@H]3[C@](C)(CCC[C@@]3(C)C(=O)O)[C@H]2CC1 = > 100 µM
• C/C(CC(C)(C)N1CC1)=N\NC(=O)Nc1cccc2ccccc12 = 5.36 µM
• COC(=O)/C=C\C(C#N)(C#N)N=Cc1cccs1 = 2.24 µM
• [Co].[O-]c1cccnc1C=Nc1ccccc1.[OH3+] = > 100 µM
• C#CCOC(=O)/C=C/C(=O)Oc1ccc2c(C)cc(=O)oc2c1 = > 100 µM
